Test system: redroot pigweed
assay-comment: Test Example 2: soil application on the day after sowing, growth inhibition rate, redroot pigweed
Type: in vivo, Amaranthus retroflexus L.
test-settings: 250 g/ha active ingredient, observed on 19th to 24th day
Reported Growth inhibition rate (%) redroot pigweed values are given for each entry in this list.
Only the number, expressed in %, is required.

{"compound": "CCOC(=O)c1c(S(C)(=O)=O)ccc(C(=O)c2cnn(CC)c2OC(=O)SCC)c1C [compound 61]", "scale-unit": "%", "data-value": 100}

q: Find the measured Growth inhibition rate (%) redroot pigweed: item CCC(C)SC(=O)Oc1c(C(=O)c2ccc(S(C)(=O)=O)c(C(=O)OC)c2Cl)cnn1CC (stereo not shown) [compound 220] , target or system redroot pigweed.
a: 100

q: Find the measured Growth inhibition rate (%) redroot pigweed: item CCSC(=O)Oc1c(C(=O)c2ccc(S(C)(=O)=O)c(C(=O)SC)c2Cl)cnn1C [compound 31] , target or system redroot pigweed.
a: 60

q: Find the measured Growth inhibition rate (%) redroot pigweed: item COC(=O)c1c(S(C)(=O)=O)ccc(C(=O)c2cnn(C)c2OC(=O)SC)c1C [Compound No. 3] , target or system redroot pigweed.
a: 100

q: Find the measured Growth inhibition rate (%) redroot pigweed: item CCn1ncc(C(=O)c2ccc(S(C)(=O)=O)c(C(=O)OC)c2C)c1OC(=O)SC(C)C [compound 87] , target or system redroot pigweed.
a: 95

q: Find the measured Growth inhibition rate (%) redroot pigweed: item CCSC(=O)Oc1c(C(=O)c2ccc(S(C)(=O)=O)c(SC)c2Cl)cnn1C [compound 212] , target or system redroot pigweed.
a: 80

q: Find the measured Growth inhibition rate (%) redroot pigweed: item CCCOC(=O)c1c(S(C)(=O)=O)ccc(C(=O)c2cnn(CC)c2OC(=O)SCC)c1Cl [compound 60] , target or system redroot pigweed.
a: 95

// provenance: patent US8030498B2
